System: cyclo-oxygenase
Assay: In vitro cyclo-oxygenase activity: malondialdehyde production in guinea pig lung homogenate incubated with arachidonic acid and cofactors
Assay type: biochemical
Method: These new products are active in vitro as inhibitors of cyclo-oxygenase (malondialdehyde production test in guinea pig lung homogenates) and/or of the 5-lipo-oxygenase (A23187 stimulated rabbit leucocytes test). The cyclooxygenase activity is determined according to the method of Luzzani et al. (Luzzani, F., et al. INT. J. TISS. REAC. X(2); 79-83, 1988), by monitoring the production of malondialdehyde in a guinea pig lung homogenate incubated in the presence of arachidonic acid and cofactors. […]
measurement type: CO (% of inhibition at 10 µM) (%)
Reply with just the number (in %).

As a guide, the following entries are already answered.
{"compound": "COc1ccc2c(c1)c(CC(=O)O)c(C)n2C(=O)c1ccc(Cl)cc1 [INDOMETHACIN, reference compound]", "target of assay": "cyclo-oxygenase", "unit abbreviation": "%", "CO (% of inhibition at 10 µM)": 98}
{"compound": "COc1cccc(CC#Cc2ccccc2)c1O", "target of assay": "cyclo-oxygenase", "unit abbreviation": "%", "CO (% of inhibition at 10 µM)": 66}
{"compound": "CC(Cc1ccc(O)c(O)c1)C(C)Cc1ccc(O)c(O)c1 (stereo not shown) [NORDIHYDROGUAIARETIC ACID, reference compound]", "target of assay": "cyclo-oxygenase", "unit abbreviation": "%", "CO (% of inhibition at 10 µM)": 5}

Input CC(C#Cc1ccccc1)c1cc(OCc2ccccc2)ccc1O (stereo not shown) . Output CO (% of inhibition at 10 µM): 0
